Measured DC50, listed per entry.
Target: BTK (Homo sapiens, UniProt Q06187)
Construct: endogenous in cells; host or cells: Mino cells
Sequence (Q06187 whole entry): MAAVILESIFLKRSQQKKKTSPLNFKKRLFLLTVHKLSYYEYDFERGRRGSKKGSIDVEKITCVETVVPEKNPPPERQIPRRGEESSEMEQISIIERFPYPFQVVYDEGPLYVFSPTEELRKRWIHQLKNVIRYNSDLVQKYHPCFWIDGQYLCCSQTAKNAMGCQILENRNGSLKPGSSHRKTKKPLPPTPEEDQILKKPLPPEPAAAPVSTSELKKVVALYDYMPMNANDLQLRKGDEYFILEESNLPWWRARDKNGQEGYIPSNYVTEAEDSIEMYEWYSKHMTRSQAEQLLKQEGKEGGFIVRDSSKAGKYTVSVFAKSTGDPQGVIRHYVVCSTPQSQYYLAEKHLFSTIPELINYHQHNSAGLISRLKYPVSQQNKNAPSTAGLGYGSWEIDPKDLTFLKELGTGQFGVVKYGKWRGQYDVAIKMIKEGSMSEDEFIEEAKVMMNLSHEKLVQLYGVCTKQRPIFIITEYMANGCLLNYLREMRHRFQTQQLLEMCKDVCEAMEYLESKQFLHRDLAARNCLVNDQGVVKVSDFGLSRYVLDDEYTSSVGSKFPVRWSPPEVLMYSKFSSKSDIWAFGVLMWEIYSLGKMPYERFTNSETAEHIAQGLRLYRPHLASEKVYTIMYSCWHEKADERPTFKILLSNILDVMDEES
Test: BTK degradation activity test in Mino cells
Assay type: cell-based
Details: 16 h incubation, Western blot or Elisa

Item: CN1CCN([C@@H]2CCCN(c3nnc(C(N)=O)c(Nc4ccc(N5CCC(CN6CCN(c7ccc8c(c7)C(=O)N(C7CCC(=O)NC7=O)C8=O)CC6)CC5)cc4)n3)C2)C1=O (stereo partly drawn) | DC50: < 1 nM

Item: CN1CCN(C2CC3CC2N(c2nnc(C(N)=O)c(Nc4ccc(C5CCN(CC6CCN(c7ccc8c(c7)C(=O)N(C7CCC(=O)NC7=O)C8=O)CC6)CC5)cc4)n2)C3)C1=O (stereo not drawn) | DC50: > 1 nM

Let us examine a further case.
Item: CN1CCN(C2CC3CC2N(c2nnc(C(N)=O)c(Nc4ccc(C5(C)CCN(C6CN(c7ccc8c(c7)C(=O)N(C7CCC(=O)NC7=O)C8=O)C6)CC5)cc4)n2)C3)C1=O (stereo not drawn) | DC50: < 1 nM

----------
Test: Stability of compounds in human liver microsome
Type: in vitro ADME
Details: human liver microsomes, NADPH, 37° C., sampling 0-120 min; read-out: Human liver microsome T1/2
outcome_measure: half-life at 0.97 µg/mL

Item: CN1CCN([C@@H]2CCCN(c3nnc(C(N)=O)c(Nc4ccc(N5CCN(CC6CCN(c7ccc(C(=O)NC8CCC(=O)NC8=O)c(F)c7)CC6)CC5)c(F)c4)n3)C2)C1=O (some centres unmarked) [Compound 254] | half-life at 0.97 µg/mL: > 30 min

Item: Cc1cc(N2CCC(CN3CCN(c4ccc(Nc5nc(N6CCC[C@@H](N7CCN(C)C7=O)C6)nnc5C(N)=O)cc4F)CC3)CC2)ccc1N1CCC(=O)NC1=O [Compound 257] | half-life at 0.97 µg/mL: > 30 min

Continuing:
Item: CN1CCN([C@@H]2CCCN(c3nnc(C(N)=O)c(Nc4ccc(N5CCN(CC6CCN(c7ccc(C(=O)N[C@H]8CCC(=O)NC8=O)c(F)c7)CC6)CC5)c(F)c4)n3)C2)C1=O [Compound 172] | half-life at 0.97 µg/mL: > 30 min

Item: CN1CCN([C@@H]2CCCN(c3nnc(C(N)=O)c(Nc4ccc(N5CCN(CC6CCN(c7ccc(N8CCC(=O)NC8=O)c(F)c7)CC6)CC5)c(F)c4)n3)C2)C1=O [Compound 184] | half-life at 0.97 µg/mL: > 30 min

Item: CN1C(=O)N([C@@H]2CCCN(c3nnc(C(N)=O)c(Nc4ccc(C5CCN(CC6CCN(c7ccc8c(c7)C(=O)N(C7CCC(=O)NC7=O)C8=O)C6)CC5)cc4)n3)C2)C(=O)C12CC2 (some centres unmarked) [Compound 137] | half-life at 0.97 µg/mL: 20 min

----------
Target: BTK (Homo sapiens, UniProt Q06187)
Construct: endogenous in cells; host or cells: Mino cells
Assay: BTK degradation activity test in Mino cells
Assay type: cell-based
Details: 16 h incubation, Western blot or Elisa
Measured DC50, listed per entry.

Consider the worked cases shown below.
Item: CN1CCN([C@@H]2CCCN(c3nnc(C(N)=O)c(Nc4ccc(N5CCN(CC6CCN(c7ccc8c(c7)C(=O)N(C7CCC(=O)NC7=O)C8=O)C6)CC5)c(F)c4)n3)C2)C1=O (stereo partly drawn) [Compound 130] | DC50: < 1 nM

Item: COc1cc(N2CCC(CN3CCN(c4ccc(Nc5nc(N6CCC[C@@H](N7CCN(C)C7=O)C6)nnc5C(N)=O)cc4F)CC3)CC2)ccc1N1CCC(=O)NC1=O [Compound 259] | DC50: < 1 nM

Let us examine a further case.
Item: CN1CCN([C@@H]2CCCN(c3nnc(C(N)=O)c(Nc4ccc(N5CCN(CC6CCN(c7ccc(NC8CCC(=O)NC8=O)cc7C(F)(F)F)CC6)CC5)c(F)c4)n3)C2)C1=O (stereo partly drawn) [Compound 252] | DC50: < 1 nM

----------
Target: BTK (Homo sapiens, UniProt Q06187)
Construct: endogenous in cells; host or cells: Mino cells
Experiment: BTK degradation activity test in Mino cells
Type: cell-based
Details: 16 h incubation, Western blot or Elisa
outcome_measure: DC50

Consider the worked cases shown below.
Item: CC1(c2ccc(Nc3nc(N4CCCC(n5cc6ccccn6c5=O)C4)cnc3C(N)=O)cc2)CCN(C2CN(c3ccc4c(c3)C(=O)N(C3CCC(=O)NC3=O)C4=O)C2)CC1 (centres unmarked) | DC50: > 1 nM

Item: CN1CCN([C@@H]2CCCN(c3nnc(C(N)=O)c(Nc4ccc(C5CCN(C[C@H]6CCN(c7cc8c(cc7F)C(=O)N(C7CCC(=O)NC7=O)C8=O)C6)CC5)cc4)n3)C2)C1=O (some centres unmarked) | DC50: < 1 nM

Item: CN1CCN([C@@H]2CCCN(c3nnc(C(N)=O)c(Nc4ccc(C5CCN(CC6CCN(c7ccc(N8CCC(=O)NC8=O)cc7)CC6)CC5)c(CO)c4)n3)C2)C1=O | DC50: < 1 nM

Continuing:
Item: CN1CCN([C@@H]2CCCN(c3ncc(C(N)=O)c(Nc4ccc(C5CCN(CC6CCN(c7ccc8c(c7)C(=O)N(C7CCC(=O)NC7=O)C8=O)CC6)CC5)cc4)n3)C2)C1=O (some centres unmarked) | DC50: < 1 nM

Item: CC1(c2ccc(Nc3nc(N4CCCC(N5CCN(C6COC6)C5=O)C4)cnc3C(N)=O)cc2)CCN(C2CCN(c3ccc4c(c3)CN(C3CCC(=O)NC3=O)C4=O)CC2)CC1 (centres unmarked) | DC50: < 1 nM

----------
Test: Stability of compounds in human liver microsome
Type: in vitro ADME
Conditions: human liver microsomes, NADPH, 37° C., sampling 0-120 min; read-out: Human liver microsome T1/2
outcome_measure: half-life at 0.97 µg/mL (min)

Item: NC(=O)c1nnc(N2CC3CC(N4C(=O)c5ccccc5C4=O)C2C3)nc1Nc1ccc(C2CCN(CC3CCN(c4ccc5c(c4)C(=O)N(C4CCC(=O)NC4=O)C5=O)CC3)CC2)cc1 (centres unmarked) | half-life at 0.97 µg/mL: 39.1

P: CN1CCN([C@@H]2CCCN(c3nnc(C(N)=O)c(Nc4ccc(C5CCN(CC6CCN(c7ccc8c(c7)C(=O)N(C7CCC(=O)NC7=O)C8=O)C6)CC5)c(F)c4)n3)C2)C1=O (some centres unmarked)
Q: NC(=O)c1nnc(N2CC3CC(N4C(=O)c5ccccc5C4=O)C2C3)nc1Nc1ccc(C2CCN(CC3CCN(c4ccc5c(c4)C(=O)N(C4CCC(=O)NC4=O)C5=O)C3)CC2)cc1 (centres unmarked)
-- ask Which one would you say has the larger half-life at 0.97 µg/mL value: P , or Q ? Let me know the label of the one you choose.
-- reply Q

----------
Target: BTK (Homo sapiens)
Construct: endogenous in cells; host or cells: Mino cells
Assay: BTK degradation activity test in Mino cells
Type: cell-based
Conditions: 16 h incubation, Western blot or Elisa
Measured DC50, listed per entry.

Consider the worked cases shown below.
Item: NC(=O)c1ncc(N2CCCC(N3CCN(C4COC4)C3=O)C2)nc1Nc1ccc2c(c1)CCN(CC1CCN(c3ccc4c(c3)C(=O)N(C3CCC(=O)NC3=O)C4=O)CC1)C2 (centres unmarked) [Compound 031] | DC50: < 1 nM

Item: CN1CCN([C@@H]2CCCN(c3nnc(C(N)=O)c(Nc4ccc(N5CCN(CC6CCN(c7ccc(N8CCC(=O)NC8=O)cc7)CC6)CC5)c(F)c4)n3)C2)C1=O [Compound 255] | DC50: < 1 nM

Item: CN1CCN([C@@H]2CCCN(c3nnc(C(N)=O)c(Nc4ccc(N5CCN(C[C@@H]6CCN(c7ccc8c(c7)C(=O)N(C7CCC(=O)NC7=O)C8=O)C6)CC5)c(F)c4)n3)C2)C1=O (some centres unmarked) [Compound 131] | DC50: < 1 nM

Item: CC1(c2ccc(Nc3nc(N4CCCC(N5CCN(C6CCCC6)C5=O)C4)cnc3C(N)=O)cc2)CCN(CC2CCN(c3ccc4c(c3)C(=O)N(C3CCC(=O)NC3=O)C4=O)C2)CC1 (centres unmarked) [Compound 034] | DC50: < 1 nM

Item: NC(=O)c1ncc(N2CCCC(N3CCN(C4CCCC4)C3=O)C2)nc1Nc1ccc(C2(F)CCN(CC3CCN(c4ccc5c(c4)C(=O)N(C4CCC(=O)NC4=O)C5=O)C3)CC2)cc1 (centres unmarked) [Compound 040] | DC50: < 1 nM

Item: NC(=O)c1nnc(N2CCCC(N3CCN(C(F)(F)F)C3=O)C2)nc1Nc1ccc(C2CCN(CC3CCN(c4ccc5c(c4)C(=O)N(C4CCC(=O)NC4=O)C5=O)CC3)CC2)cc1 (centres unmarked) [Compound 056] | DC50: < 1 nM

Continuing:
Item: Cn1c(=O)n(C2CCCN(c3cnc(C(N)=O)c(Nc4ccc(C5(C)CCN(C6CN(c7ccc8c(c7)C(=O)N(C7CCC(=O)NC7=O)C8=O)C6)CC5)cc4)n3)C2)c2ccccc21 (centres unmarked) [Compound 025] | DC50: < 1 nM

Item: CN1CCN([C@@H]2CCCN(c3nnc(C(N)=O)c(Nc4cc(F)c5c(c4)CCN(CC4CCN(c6ccc7c(c6)C(=O)N(C6CCC(=O)NC6=O)C7=O)CC4)CC5)n3)C2)C1=O (some centres unmarked) [Compound 231] | DC50: < 1 nM

Item: CN1CCN([C@@H]2CCCN(c3nnc(C(N)=O)c(Nc4ccc(C5CCN(CC6CCN(c7cc8c(cc7F)C(=O)N(C7CCC(=O)NC7=O)C8=O)C6)CC5)cc4)n3)C2)C1=O (some centres unmarked) [Compound 126] | DC50: < 1 nM

Item: CN1CCN([C@@H]2CCCN(c3nnc(C(N)=O)c(Nc4ccc(C5CCN(CC6CCN(c7ccc8c(c7)C(=O)N(C7CCC(=O)NC7=O)C8=O)CC6)CC5)cc4)n3)C2)C1=O (some centres unmarked) [Compound 123] | DC50: < 1 nM

Item: NC(=O)c1nnc(N2CCCC(N3CCN(C4CC4)C3=O)C2)nc1Nc1ccc(C2CCN(CC3CCN(c4ccc5c(c4)C(=O)N(C4CCC(=O)NC4=O)C5=O)CC3)CC2)cc1 (centres unmarked) [Compound 058] | DC50: < 1 nM

Item: CN1CCN([C@@H]2CCCN(c3nnc(C(N)=O)c(Nc4ccc(N5CCN(CC6CCN(c7ccc8c(C9CCC(=O)NC9=O)noc8c7)CC6)CC5)c(F)c4)n3)C2)C1=O (some centres unmarked) [Compound 243] | DC50: < 1 nM

Item: CN1CCN(C2CC3CC2N(c2nnc(C(N)=O)c(Nc4ccc(C5CCN(C6CCN(c7ccc8c(c7)C(=O)N(C7CCC(=O)NC7=O)C8=O)CC6)CC5)cc4)n2)C3)C1=O (centres unmarked) [Compound 109] | DC50: < 1 nM

Item: Cc1cc(N2CCC(CN3CCC(c4ccc(Nc5nc(N6CCC[C@@H](N7CCN(C)C7=O)C6)nnc5C(N)=O)cc4CO)CC3)CC2)ccc1N1CCC(=O)NC1=O [Compound 237] | DC50: < 1 nM

Item: CN1CCN([C@@H]2CCCN(c3nnc(C(N)=O)c(Nc4ccc(C5CCN(C(=O)C6CCN(c7ccc8c(c7)C(=O)N(C7CCC(=O)NC7=O)C8=O)C6)CC5)cc4)n3)C2)C1=O (some centres unmarked) [Compound 127] | DC50: < 1 nM

Item: NC(=O)c1nnc(N2CCCC(N3CCN(C4CCC4)C3=O)C2)nc1Nc1ccc(C2CCN(CC3CCN(c4ccc5c(c4)C(=O)N(C4CCC(=O)NC4=O)C5=O)CC3)CC2)cc1 (centres unmarked) [Compound 059] | DC50: > 1 nM

Item: CN1CCN([C@@H]2CCCN(c3nnc(C(N)=O)c(Nc4ccc(N5CCN(CC#Cc6ccc(C(=O)NC7CCC(=O)NC7=O)nc6)CC5)c(F)c4)n3)C2)C1=O (some centres unmarked) [Compound 224] | DC50: < 1 nM

Item: NC(=O)c1ncc(N2CCCC(N3CCN(C4CCCC4)C3=O)C2)nc1Nc1ccc(C2CCN(CC3CCN(c4ccc5c(c4)C(=O)N(C4CCC(=O)NC4=O)C5=O)C3)CC2F)cc1 (centres unmarked) [Compound 043] | DC50: > 1 nM

Item: CN1CCN([C@@H]2CCCN(c3nnc(C(N)=O)c(Nc4ccc(N5CCN(CC6CCN(c7cc8c(cc7F)C(=O)N(C7CCC(=O)NC7=O)C8=O)CC6)CC5)c(F)c4)n3)C2)C1=O (some centres unmarked) [Compound 170] | DC50: < 1 nM

Item: Cn1c(=O)n(C2CCC(=O)NC2=O)c2cccc(N3CC(N4CCC(C)(c5ccc(Nc6nc(N7CCCC(N8CCN(C9CCCC9)C8=O)C7)cnc6C(N)=O)cc5)CC4)C3)c21 (centres unmarked) [Compound 022] | DC50: < 1 nM
